Reference for the values: PubChem BioAssay

Test system: Noggin (protein binding on small-molecule microarray)
Test: small molecules binding Noggin protein – biochemical, 635/667 nm fluorescence, primary screen (AID 1095);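 note: score merges 667 nm feature fluorescence with signal to noise over triplicate slides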
Settings: 635 nm fluorescence, higher = more signal
The label depends only on composite z-score: 1.0 if it is at least 0.2, 0.0 if it is smaller.

Reference set (4 entries):
* CO[C@H]1O[C@H](CO)[C@@H](OC(=O)Nc2ccc3c(c2)OCO3)[C@H](OC(=O)Nc2ccc3c(c2)OCO3)[C@@H]1OC(=O)Nc1ccc2c(c1)OCO2 | 1.0
* C[N+](C)(C)CCCCCCNC(=O)[C@@H]1C[C@@H]2C(=O)N3CCC[C@H]3C(=O)N2[C@@H]1c1ccc(O)cc1 | 1.0
* COC(=O)[C@@]1(Cc2ccc(OC)cc2)[C@H]2c3cc(C(=O)N4CCCC4)n(CCc4c[nH]c5ccc(OC)cc45)c3C[C@H]2CN1C(=O)c1ccccc1 | 0.0
* COc1cc(NN2C(C(O)c3cc(OC)c(OC)c(OC)c3)C=CC3C(=O)N(C)C(=O)C32)cc(OC)c1OC (stereo not given) | 0.0

Query string: Identify whether the reported composite z-score of the following compound is 0.2 or greater: Cc1ccccc1C(O)C1C=CC2C(=O)NC(=O)C2N1Nc1ccccn1 (stereo not given)
Result string: 1.0

Query string: Identify whether the reported composite z-score of the following compound is 0.2 or greater: COc1ccc([Si](C)(C)[C@@H]2[C@@H](CC(=O)N(CCO)Cc3ccccc3)O[C@]3(C(=O)N(Cc4cccc(N5CCCCC5=O)c4)c4ccccc43)[C@H]2C)cc1
Result string: 1.0

Query string: Identify whether the reported composite z-score of the following compound is 0.2 or greater: NCCCCCCNC(=O)[C@@H]1C[C@@H]2C(=O)N[C@@H](CCCCN)C(=O)N2[C@@H]1c1ccc(O)cc1
Result string: 1.0

Query string: Identify whether the reported composite z-score of the following compound is 0.2 or greater: C=CC[C@]1(C(=O)N2CCCCC2)N=C(c2ccc(OCCCO)cc2)O[C@H]1c1ccccc1CN=[N+]=[N-]
Result string: 1.0

Query string: Identify whether the reported composite z-score of the following compound is 0.2 or greater: CCCN1C(=O)[C@]2(Cc3ccccc31)N=C(c1ccc(OCCCO)cc1)O[C@@H]2c1ccccc1
Result string: 1.0

Query string: Identify whether the reported composite z-score of the following compound is 0.2 or greater: COC(=O)[C@@]1(Cc2ccc(OC)cc2)[C@H]2c3cc(C(=O)N(C)C)n(Cc4ccc(C)o4)c3C[C@H]2CN1C(=O)c1ccccc1
Result string: 0.0

Query string: Identify whether the reported composite z-score of the following compound is 0.2 or greater: C[N+](C)(C)CCCC[C@@H]1NC(=O)[C@@H]2C[C@H](C(=O)NCCCCCCN)[C@H](c3cccc(OCCO)c3)N2C1=O
Result string: 1.0

Query string: Identify whether the reported composite z-score of the following compound is 0.2 or greater: C#CCN(Cc1ccccc1Br)[C@H](/C=C/c1ccccc1)[C@@H](O)Cc1ccccc1
Result string: 0.0

Query string: Identify whether the reported composite z-score of the following compound is 0.2 or greater: CCOC(=O)C[C@H]1[C@H](OC(=O)c2ccccc2-c2ccccc2)[C@@H](NC(=O)c2ccc3ccccc3c2)c2cc(OCCCO)ccc2N1C(=O)c1ccccc1
Result string: 1.0

Query string: Identify whether the reported composite z-score of the following compound is 0.2 or greater: COC(=O)[C@@]1(Cc2ccc(F)cc2)[C@H]2c3cc(C(=O)N(C)C)n(Cc4ccc(OC(F)(F)F)cc4)c3C[C@H]2CN1C(=O)c1ccccc1
Result string: 0.0

Query string: Identify whether the reported composite z-score of the following compound is 0.2 or greater: CC(C)N1C(=O)c2ccccc2[C@@H](C(=O)NCCN2CCOCC2)[C@@H]1c1ccc(CO)cc1
Result string: 0.0

Query string: Identify whether the reported composite z-score of the following compound is 0.2 or greater: CCCC#C[Si](O[C@H](CC)c1cn([C@H](C)c2ccccc2)nn1)(C(C)C)C(C)C
Result string: 1.0

Query string: Identify whether the reported composite z-score of the following compound is 0.2 or greater: CC(C)(C)OC(=O)CC[C@@]1(C(=O)NCC(O)CO)N=C(c2ccc(OCCCO)cc2)O[C@@H]1c1ccccc1CN=[N+]=[N-] (stereo not given in full)
Result string: 0.0

Query string: Identify whether the reported composite z-score of the following compound is 0.2 or greater: CCOC(=O)C1=C[C@@H](C(C)(C)C)N(S(=O)(=O)c2ccc(C)cc2)[C@H]1c1cccc2ccccc12
Result string: 0.0

Query string: Identify whether the reported composite z-score of the following compound is 0.2 or greater: C=C[C@@H](CO)N(Cc1ccc(OC)cc1)S(=O)(=O)c1ccc(Br)cc1
Result string: 0.0

Query string: Identify whether the reported composite z-score of the following compound is 0.2 or greater: CN1C(=O)C2C=CC(C(O)c3cccn3C)N(Nc3ccc([N+](=O)[O-])cc3[N+](=O)[O-])C2C1=O (stereo not given)
Result string: 1.0
